# PROTOCOL DETAILS: Turbidity, derived count rate of scattered light
# Type: physicochemical
# CONDITION INFO: logarithm of count rate in kcps
Classification field: enter MET for Log10 Count Rate values not below 3, NOT MET for values below it.

| SUBSTANCE | CLASSIFICATION |
| --- | --- |
| KAQCTLP | NOT MET |
| CKFKQFFNM | MET |
| HHHHKIKIKIKIWWWW | MET |
| KIWIWIW | MET |
| KFQFNMW | NOT MET |
| CKIWIQIY | MET |
| QCKIKQIINMWQ [reference compound] | MET |
| CKIKQII | NOT MET |
| RVRVTVT | NOT MET |
| CRFRFHFH | NOT MET |
| QCKAKAQANMWQ | NOT MET |
| KAKAQANM | NOT MET |
| CSISIQI | MET |
| HHHHKIKIQINMYYYY | MET |
| CKIKQIINMWQ | MET |
| CKFKFQF | MET |
| CRLRVGVS | NOT MET |
| KIKIQINMWQRGD | MET |
| KIKQIIN | NOT MET |
| CKIKIWIW | MET |
| QCKAKAQANM | NOT MET |
| CKFKQFF | NOT MET |
| RINFWFW | MET |
| CKIKIQI | MET |
| KFKFQFNMWQ | NOT MET |
| KAKAQANMWQ | NOT MET |
| KIKQIINMWQ | NOT MET |
| CKFKFPF | NOT MET |
| RVHLGLG | NOT MET |
| KIKIQIN | NOT MET |
| KWKWQW | MET |
| HHHHKIKIKIKIYYYY | MET |
| CRLSLSLS | MET |
| KLKLTLT | NOT MET |
| KFKFQFN | NOT MET |

* * *

# Format: physicochemical
# CONDITION INFO: Fig S10 panel E
# Method: 4 µL of 1 mg/mL peptide fibrils solution is added to a 20 µL, 50 µM ThT–solution in PBS. The mixture is incubated for 15 min at RT to allow binding of ThT dye with β–sheet rich structures. […] Fluorescence spectra were recorded on an Infinite® M1000 PRO microplate reader (Tecan) at λem = 488 nm upon excitation at λex = 440 nm with 10 nm bandwidths and multiple reads per well (3×3). […] Furthermore, fluorescence microscopy was conducted by staining 1 µL preformed fibrils (1 mg/mL) with 9 µL ThT (50 µM). […]

| SUBSTANCE | ThT Cat. |
| --- | --- |
| QCKFKQFFNM | 1 (ThT. Cat is 1, if Rel. ThT >2) |
| HIHIQIC | 1 (ThT. Cat is 1, if Rel. ThT >2) |
| KFKFQFNMWQ | 1 (ThT. Cat is 1, if Rel. ThT >2) |
| CEIEIQI | 1 (ThT. Cat is 1, if Rel. ThT >2) |
| CEFEFQFNMWQ | 1 (ThT. Cat is 1, if Rel. ThT >2) |
| KAKAQANMWQ | 0 (ThT-inactive (N-Fold <2)) |
| HHHHKIKIKIKIWWWW | 1 (ThT. Cat is 1, if Rel. ThT >2) |
| CKIKQII | 1 (ThT. Cat is 1, if Rel. ThT >2) |

* * *

# PROTOCOL DETAILS: Zeta-potential measurement
# Assay type: physicochemical
# CONDITION INFO: zeta-potential of peptide; source data of Figure 2C

| SUBSTANCE | UOM | Zeta-Potential / mV |
| --- | --- | --- |
| KAKQAANMWQ | mV | -8.433 |
| NMWQKVGTPL | mV | -5.334 |
| KAKAQA | mV | -10.04 |
| KIKIQIC | mV | 19.97 |
| KIKIKIQI | mV | 9.885 |
| CKFKQFFNMWQ | mV | 10.915 |
| EIEIEIEI | mV | -7.535 |
| KIKIKIKI | mV | 5.997 |
| RGDSGGGGGGKIKIQIC | mV | 16.7 |
| KLKLQLL | mV | -3.1875 |

* * *

# PROTOCOL DETAILS: Zeta-potential measurement
# Type: physicochemical
# CONDITION INFO: category from zeta potential
ASSAY READOUT: Zeta category ( +1 = if > 4 mV;-1 = if < -4 mV; 0 = -4mV to 4 mV)

| ITEM SEQUENCE | REPORTED RESULT |
| --- | --- |
| CKIKQIINM [BL1] | 1 (+1 = if > 4 mV) |
| KFKQFFNMWQ [JG5] | 0 (0 = -4mV to 4 mV) |
| CKFKFQFNMWQ [BL2] | 1 (+1 = if > 4 mV) |
| KIKIKIQINMWQ [VH9] | 1 (+1 = if > 4 mV) |
| KIKIQINM [JGB2] | 1 (+1 = if > 4 mV) |

* * *

# System: HIV-1 infection of TZM-bl cells
# PROTOCOL DETAILS: HIV-1 infectivity enhancement assay, β-galactosidase luminescence
# Assay type: cell-based
# CONDITION INFO: HIV-1 infection of TZM-bl cells, Log10 of infection rate relative to EF-C; Figure 3A source data
This section presents substances with their documented Log10 Infection Rel EF-C values.

| SUBSTANCE | Log10 Infection Rel EF-C |
| --- | --- |
| QCKAKAQANM | -1.83 |
| KIRGKFEKED | -1.24 |
| KIKIQINMWQ | -0.53 |
| KYKYQY | -1.99 |
| QCKFKFQFNM | -0.29 |
| RGECKFKFQF | -0.48 |
| KIKIQI | -1.17 |
| KFKQFFINMWQ | -0.04 |
| KIKIQINMAQ | -0.67 |
| KIKIQIC | -0.22 |
| QCKIKQIINM | -0.46 |
| RGDCKFKFQF | -0.82 |
| KAKAQANM | -2.05 |
| RGDKIKIQIC | -0.08 |
| MKFKFQF | -1.2 |
| RLRLTLC | -1.29 |
| CKWKWQW | -0.6 |
| MKIKIQINMWQ | -0.38 |
| QCKAKAQA | -1.6 |
| CEFEFQF | -2.28 |
| NMWQKVGTPL | -1.61 |
| KIEIQINM | -1.46 |
| KLKQLL | -2.13 |
| KIKIKIKI | -1.49 |
| PPFHPPPFHP | -1.75 |
| MKIKIQINM | -0.56 |
| CHLHLQL | -1.01 |
| RGDKIKIQINMWQ | -0.12 |
| KIKIQINAWQ | -0.27 |
| KYKGAIIGNIK | -2.51 |
| KIKIQINMWWWQ | 0.44 |

* * *

# PROTOCOL DETAILS: Turbidity, derived count rate of scattered light
# Format: physicochemical
# CONDITION INFO: Fig S8 panels B, D; log of derived count rate

| SUBSTANCE | Log Count Rate |
| --- | --- |
| KIKIQIN [JGB3] | 1.638 |
| CKFKFQFW [TM72] | 4.466 |
| CKFKFQF [BL4] | 3.725 |
| CKAKAQANMWQ [BL8] | 0.9528 |
| KIKQIINMWQ [JG2] | 2.789 |
| CKIKQIINMWQ [MG5a / CK17] | 3.92 |
| CKFKQFFNM [CK14] | 4.436 |
| CKIKIQI [MG3b] | 3.386 |
| KFKFQFNMWQ [JG4] | 2.866 |
| KIKQIIN [JGA3] | 1.806 |
| HIHIQIC [CN12] | 2.416 |
| CKFKQFF [CK15] | 0.4099 |
| HHHHKIKIKIKIYYYY [TM6] | 4.107 |
| CSISIQI [TM141] | 4.01 |
| HHHHKIKIKIKIWWWW [TM4] | 4.376 |
| CKIKQII [MG4a] | 1.873 |
| RGDSGGGGGGKIKIQIC [TM114 / RC17] | 4.018 |

* * *

# PROTOCOL DETAILS: Aggregate analysis by widefield fluorescence microscopy
# Assay type: physicochemical
# CONDITION INFO: Fig S8 panels B, D; median aggregate area, 3 fields of 1330 µm x 1330 µm
# Description: 4 µL of 1 mg/mL peptide fibrils solution is added to a 20 µL, 50 µM ThT–solution in PBS. The mixture is incubated for 15 min at RT to allow binding of ThT dye with β–sheet rich structures. […] Fluorescence spectra were recorded on an Infinite® M1000 PRO microplate reader (Tecan) at λem = 488 nm upon excitation at λex = 440 nm with 10 nm bandwidths and multiple reads per well (3×3). […] Furthermore, fluorescence microscopy was conducted by staining 1 µL preformed fibrils (1 mg/mL) with 9 µL ThT (50 µM). […]
// classify: if (Median Area in 3 * (1330 µm *1330 µm) < 50) criterion met else criterion not met

| SUBSTANCE | CLASSIFICATION |
| --- | --- |
| CKFKQFF [CK15] | criterion not met |
| CKAKAQANMWQ [BL8] | criterion not met |
| QCKAKAQA [CK24] | criterion met |
| CSISIQI [TM141] | criterion met |
| CKIKQIINMWQ [MG5a / CK17] | criterion not met |
| QCKFKQFFNMWQ [CK10] | criterion met |
| HHHHKIKIQINMYYYY [TM16] | criterion met |
| HHHHKIKIKIKIYYYY [TM6] | criterion met |
| RGDSGGGGGGKIKIQIC [TM114 / RC17] | criterion not met |
| KIKIQIN [JGB3] | criterion not met |
| CHLHLQL [CN9] | criterion met |
| HIHIQIC [CN12] | criterion not met |
| KIKIQIC [TM112 / CN11] | criterion met |
| CKFKFQFNM [BL3] | criterion met |
| CKFKFQF [BL4] | criterion met |
| CKIKQII [MG4a] | criterion met |
